System: MPDZ-1
Assay: Holdup assay, MPDZ-1
Assay type: binding, human
*1 amine or outer side, *2 acyl side, *3 side chain or, on linkers, in order; H or OH if unused. Where a SMILES comes first, the peptide text is derived from it. The star is where a group is joined. X1 = O=C(CCCC[C@@H]1SC[C@@H]2NC(=O)N[C@@H]21)NCCCOCCOCCOCCCN*; Suc = O=C(CCC(=O)[*:2])[*:1]
parameter.measured: BI
Could you respond with only the numeric value?

CC[C@H](C)[C@H](NC(=O)[C@H](CCC(N)=O)NC(=O)[C@@H](NC(=O)[C@H](Cc1c[nH]cn1)NC(=O)[C@H](CCC(N)=O)NC(=O)[C@H](CC(=O)O)NC(=O)[C@H](CCC(=O)O)NC(=O)[C@H](CC(=O)O)NC(=O)CCC(=O)NCCCOCCOCCOCCCNC(=O)CCCC[C@@H]1SC[C@@H]2NC(=O)N[C@@H]21)[C@@H](C)O)C(=O)N[C@H](C(=O)N[C@@H](CCCCNC(C)=O)C(=O)N[C@H](C(=O)O)C(C)C)[C@@H](C)O | 0.074
CC[C@H](C)[C@H](NC(=O)[C@H](CCC(N)=O)NC(=O)[C@@H](NC(=O)[C@H](Cc1c[nH]cn1)NC(=O)[C@H](CCC(N)=O)NC(=O)[C@H](CC(=O)O)NC(=O)[C@H](CCC(=O)O)NC(=O)[C@H](CC(=O)O)NC(=O)CCC(=O)NCCCOCCOCCOCCCNC(=O)CCCC[C@@H]1SC[C@@H]2NC(=O)N[C@@H]21)[C@@H](C)O)C(=O)N[C@H](C(=O)N[C@@H](CCCCN)C(=O)N[C@H](C(=O)O)C(C)C)[C@@H](C)O | 0.039
CC[C@H](C)[C@H](NC(=O)[C@H](CCC(N)=O)NC(=O)[C@@H](NC(=O)[C@H](Cc1c[nH]cn1)NC(=O)[C@H](CCC(N)=O)NC(=O)[C@H](CC(=O)O)NC(=O)[C@H](CCC(=O)O)NC(=O)[C@H](CC(=O)O)NC(=O)CCC(=O)NCCCOCCOCCOCCCNC(=O)CCCC[C@@H]1SC[C@@H]2NC(=O)N[C@@H]21)[C@@H](C)O)C(=O)N[C@H](C(=O)N[C@@H](CCCNC(=N)N)C(=O)N[C@H](C(=O)O)C(C)C)[C@@H](C)O [PTEN_KR] ({X1-Suc}-DEDQHTQITRV-OH) | -0.039

Okay, now this compound:
**Query** Look up BI: CC[C@H](C)[C@H](NC(=O)[C@H](CCC(N)=O)NC(=O)[C@@H](NC(=O)[C@H](Cc1c[nH]cn1)NC(=O)[C@H](CCC(N)=O)NC(=O)[C@H](CC(=O)O)NC(=O)[C@H](CCC(=O)O)NC(=O)[C@H](CC(=O)O)NC(=O)[C@H](Cc1ccccc1)NC(=O)[C@@H]1CCCN1C(=O)CCC(=O)NCCCOCCOCCOCCCNC(=O)CCCC[C@@H]1SC[C@@H]2NC(=O)N[C@@H]21)[C@@H](C)O)C(=O)N[C@H](C(=O)N[C@@H](CCCCN)C(=O)N[C@H](C(=O)O)C(C)C)[C@@H](C)O [PTEN_13] ({X1-Suc}-PFDEDQHTQITKV-OH)
**Result** 0.011

* * *

System: 266 human PDZ domains (PDZome)
Experiment: Holdup assay (chromatographic retention, PDZome-binding profile, BI)
Parameters: key: binding intensity: 0.00 = no binding, 1.00 = maximal binding
Details: PDZ domain PARD3-1, first of two lines so named (r186)
*1 amine or outer side, *2 acyl side, *3 side chain or, on linkers, in order; H or OH if unused. Where a SMILES comes first, the peptide text is derived from it. The star is where a group is joined. X1 = O=C(CCCC[C@@H]1SC[C@@H]2NC(=O)N[C@@H]21)NCCCOCCOCCOCCCN*; Suc = O=C(CCC(=O)[*:2])[*:1]
parameter.measured: BI
Could you respond with only the numeric value?

The examples below pair each entry with its known result.
CC[C@H](C)[C@H](NC(=O)[C@H](CCC(N)=O)NC(=O)[C@@H](NC(=O)[C@H](Cc1c[nH]cn1)NC(=O)[C@H](CCC(N)=O)NC(=O)[C@H](CC(=O)O)NC(=O)[C@H](CCC(=O)O)NC(=O)[C@H](CC(=O)O)NC(=O)CCC(=O)NCCCOCCOCCOCCCNC(=O)CCCC[C@@H]1SC[C@@H]2NC(=O)N[C@@H]21)[C@@H](C)O)C(=O)N[C@H](C(=O)N[C@@H](CCCNC(=N)N)C(=O)N[C@H](C(=O)O)C(C)C)[C@@H](C)O [PTEN_KR] ({X1-Suc}-DEDQHTQITRV-OH) | 0.3
CC[C@H](C)[C@H](NC(=O)[C@H](CCC(N)=O)NC(=O)[C@@H](NC(=O)[C@H](Cc1c[nH]cn1)NC(=O)[C@H](CCC(N)=O)NC(=O)[C@H](CC(=O)O)NC(=O)[C@H](CCC(=O)O)NC(=O)[C@H](CC(=O)O)NC(=O)[C@H](Cc1ccccc1)NC(=O)[C@@H]1CCCN1C(=O)CCC(=O)NCCCOCCOCCOCCCNC(=O)CCCC[C@@H]1SC[C@@H]2NC(=O)N[C@@H]21)[C@@H](C)O)C(=O)N[C@H](C(=O)N[C@@H](CCCCN)C(=O)N[C@H](C(=O)O)C(C)C)[C@@H](C)O [PTEN_13] ({X1-Suc}-PFDEDQHTQITKV-OH) | 0.146
CC[C@H](C)[C@H](NC(=O)[C@H](CCC(N)=O)NC(=O)[C@@H](NC(=O)[C@H](Cc1c[nH]cn1)NC(=O)[C@H](CCC(N)=O)NC(=O)[C@H](CC(=O)O)NC(=O)[C@H](CCC(=O)O)NC(=O)[C@H](CC(=O)O)NC(=O)CCC(=O)NCCCOCCOCCOCCCNC(=O)CCCC[C@@H]1SC[C@@H]2NC(=O)N[C@@H]21)[C@@H](C)O)C(=O)N[C@H](C(=O)N[C@@H](CCCCN)C(=O)N[C@H](C(=O)O)C(C)C)[C@@H](C)O | 0.172

**Query** Look up BI: CC[C@H](C)[C@H](NC(=O)[C@H](CCC(N)=O)NC(=O)[C@@H](NC(=O)[C@H](Cc1c[nH]cn1)NC(=O)[C@H](CCC(N)=O)NC(=O)[C@H](CC(=O)O)NC(=O)[C@H](CCC(=O)O)NC(=O)[C@H](CC(=O)O)NC(=O)CCC(=O)NCCCOCCOCCOCCCNC(=O)CCCC[C@@H]1SC[C@@H]2NC(=O)N[C@@H]21)[C@@H](C)O)C(=O)N[C@H](C(=O)N[C@@H](CCCCNC(C)=O)C(=O)N[C@H](C(=O)O)C(C)C)[C@@H](C)O
**Result** 0.035

* * *

Tested on: 266 human PDZ domains (PDZome)
Test: Holdup assay (chromatographic retention, PDZome-binding profile, BI)
Design: key: binding intensity: 0.00 = no binding, 1.00 = maximal binding
Conditions: PDZ domain MPDZ-6
*1 amine or outer side, *2 acyl side, *3 side chain or, on linkers, in order; H or OH if unused. Where a SMILES comes first, the peptide text is derived from it. The star is where a group is joined. X1 = O=C(CCCC[C@@H]1SC[C@@H]2NC(=O)N[C@@H]21)NCCCOCCOCCOCCCN*; Suc = O=C(CCC(=O)[*:2])[*:1]
molecules and their reported BI
Could you respond with only the numeric value?

The examples below pair each entry with its known result.
CC[C@H](C)[C@H](NC(=O)[C@H](CCC(N)=O)NC(=O)[C@@H](NC(=O)[C@H](Cc1c[nH]cn1)NC(=O)[C@H](CCC(N)=O)NC(=O)[C@H](CC(=O)O)NC(=O)[C@H](CCC(=O)O)NC(=O)[C@H](CC(=O)O)NC(=O)CCC(=O)NCCCOCCOCCOCCCNC(=O)CCCC[C@@H]1SC[C@@H]2NC(=O)N[C@@H]21)[C@@H](C)O)C(=O)N[C@H](C(=O)N[C@@H](CCCNC(=N)N)C(=O)N[C@H](C(=O)O)C(C)C)[C@@H](C)O [PTEN_KR] ({X1-Suc}-DEDQHTQITRV-OH) | 0.033
CC[C@H](C)[C@H](NC(=O)[C@H](CCC(N)=O)NC(=O)[C@@H](NC(=O)[C@H](Cc1c[nH]cn1)NC(=O)[C@H](CCC(N)=O)NC(=O)[C@H](CC(=O)O)NC(=O)[C@H](CCC(=O)O)NC(=O)[C@H](CC(=O)O)NC(=O)CCC(=O)NCCCOCCOCCOCCCNC(=O)CCCC[C@@H]1SC[C@@H]2NC(=O)N[C@@H]21)[C@@H](C)O)C(=O)N[C@H](C(=O)N[C@@H](CCCCNC(C)=O)C(=O)N[C@H](C(=O)O)C(C)C)[C@@H](C)O [PTEN_Ac] | -0.058

Okay, now this molecule:
**Query** Entry CC[C@H](C)[C@H](NC(=O)[C@H](CCC(N)=O)NC(=O)[C@@H](NC(=O)[C@H](Cc1c[nH]cn1)NC(=O)[C@H](CCC(N)=O)NC(=O)[C@H](CC(=O)O)NC(=O)[C@H](CCC(=O)O)NC(=O)[C@H](CC(=O)O)NC(=O)[C@H](Cc1ccccc1)NC(=O)[C@@H]1CCCN1C(=O)CCC(=O)NCCCOCCOCCOCCCNC(=O)CCCC[C@@H]1SC[C@@H]2NC(=O)N[C@@H]21)[C@@H](C)O)C(=O)N[C@H](C(=O)N[C@@H](CCCCN)C(=O)N[C@H](C(=O)O)C(C)C)[C@@H](C)O [PTEN_13] ({X1-Suc}-PFDEDQHTQITKV-OH) , system 266 human PDZ domains (PDZome): what BI was measured?
**Result** -0.029
